method.summary: Comparable solubility in phosphate buffer / physiologically relevant medium
Format: physicochemical
run.parameters: phosphate buffer + taurocholate + lecithin; Physiologically relevant medium: phosphate buffer pH=6.76 + Sodiumtauroholat (2,5 mM) + Lecitin (0,5 mM); 60 min; read-out: C60 min
metric: solubility at 1 h (µg/mL)
One number for each entry, in µg/mL.

I am curious: what solubility at 1 h value has been reported for CCOc1nc2cccc(C(=O)OC(C)OC(=O)OC3CCCCC3)c2n1Cc1ccc(-c2ccccc2-c2nnn[nH]2)cc1 (stereo not shown) [Form 5, candesartan cilexetil] ?
68.5
